compounds and their reported kon
- System Under Test: PcsBCHAP (CHAP domain of PcsB) (Streptococcus pneumoniae, UniProt A0A0H2ZQ76)
- Sequence (A0A0H2ZQ76 274-392): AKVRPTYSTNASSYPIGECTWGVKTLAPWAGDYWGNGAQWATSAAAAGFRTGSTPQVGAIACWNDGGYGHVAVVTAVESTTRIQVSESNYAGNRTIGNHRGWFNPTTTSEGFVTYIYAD
- Test Protocol: biochemical
- Stated Conditions: read-out: ka (1/Ms)
*1 amine or outer side, *2 acyl side, *3 side chain or, on linkers, in order; H or OH if unused. Where a SMILES comes first, the peptide text is derived from it. [ ]: non-standard residue; d: D form. d(isoGln) = NC(=O)[C@@H](CCC(=O)[*:2])N[*:1]

# count of solved cases: 5
# Compound, Result
measured = [
    ("C[C@H](N)C(=O)N[C@H](CCC(=O)N[C@@H](CCCCN)C(=O)N[C@H](C)C(=O)N[C@H](C)C(=O)O)C(N)=O [AiQKADAD] (H-A[d(isoGln)]K[dA][dA]-OH)", "99600 M⁻¹ s⁻¹"),
    ("NCCCC[C@H](NC(=O)CC[C@@H](N)C(=O)O)C(=O)O", "102000 M⁻¹ s⁻¹"),
    ("N[C@H](CCC(=O)N[C@H](CCC[C@H](N)C(=O)O)C(=O)O)C(=O)O", "158000 M⁻¹ s⁻¹"),
    ("CC(=O)N[C@H]1C(O)O[C@H](CO)[C@@H](O)[C@@H]1O[C@H](C)C(=O)N[C@@H](C)C(=O)N[C@H](CCC(=O)N[C@@H](CCC[C@@H](N)C(=O)O)C(=O)O)C(=O)O (stereo partly drawn)", "6280 M⁻¹ s⁻¹"),
    ("CC(=O)N[C@H]1C(O)O[C@H](CO)[C@@H](O)[C@@H]1O[C@H](C)C(=O)N[C@@H](C)C(=O)N[C@H](CCC(=O)N[C@@H](CCCCN)C(=O)O)C(N)=O (stereo partly drawn)", "98200 M⁻¹ s⁻¹"),
]

For the next question, use this compound.
Input: Please look at this compound and report its kon: "C[C@H](N)C(=O)N[C@H](CCC(=O)N[C@@H](CCCCN)C(=O)N[C@H](C)C(=O)N[C@H](C)C(=O)O)C(=O)O"
Output: 33300 M⁻¹ s⁻¹

---

- System Under Test: PcsBCHAP (CHAP domain of PcsB) (Streptococcus pneumoniae, UniProt A0A0H2ZQ76)
- Sequence (A0A0H2ZQ76 274-392): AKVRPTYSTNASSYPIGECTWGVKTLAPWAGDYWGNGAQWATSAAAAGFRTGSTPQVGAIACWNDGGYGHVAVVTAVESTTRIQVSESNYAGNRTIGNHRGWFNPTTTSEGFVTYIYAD
- Test Protocol: biochemical
- Stated Conditions: read-out: kd (1/s)
*1 amine or outer side, *2 acyl side, *3 side chain or, on linkers, in order; H or OH if unused. Where a SMILES comes first, the peptide text is derived from it. [ ]: non-standard residue; d: D form. d(isoGln) = NC(=O)[C@@H](CCC(=O)[*:2])N[*:1]
Label F if koff falls below 0.01 s⁻¹; label T in every other case.

The examples below pair each entry with its known result.
# Compound, Class Name
data = [
    ("C[C@H](N)C(=O)N[C@H](CCC(=O)N[C@@H](CCCCN)C(=O)N[C@H](C)C(=O)N[C@H](C)C(=O)O)C(=O)O", "T"),
    ("N[C@H](CCC(=O)N[C@H](CCC[C@H](N)C(=O)O)C(=O)O)C(=O)O", "T"),
    ("C[C@H](N)C(=O)N[C@H](CCC(=O)N[C@@H](CCCCN)C(=O)N[C@H](C)C(=O)N[C@H](C)C(=O)O)C(N)=O [AiQKADAD] (H-A[d(isoGln)]K[dA][dA]-OH)", "F"),
    ("NCCCC[C@H](NC(=O)CC[C@@H](N)C(=O)O)C(=O)O", "F"),
    ("CC(=O)N[C@H]1C(O)O[C@H](CO)[C@@H](O)[C@@H]1O[C@H](C)C(=O)N[C@@H](C)C(=O)N[C@H](CCC(=O)N[C@@H](CCC[C@@H](N)C(=O)O)C(=O)O)C(=O)O (stereo partly drawn)", "F"),
]

Input: API: above_or_equal(metric=koff, cutoff=0.01 s⁻¹) for item CC(=O)N[C@H]1C(O)O[C@H](CO)[C@@H](O)[C@@H]1O[C@H](C)C(=O)N[C@@H](C)C(=O)N[C@H](CCC(=O)N[C@@H](CCCCN)C(=O)O)C(N)=O (stereo partly drawn)
Output: T
